testSystem: T1, human PD-1 dimer (human PD-1-mFc or human PD-1-hFc) (human, UniProt Q15116 25-170)
T1 construct: also called hPD-1-mFc; hPD1-hFc
T1 sequence (Q15116 25-170 C93S): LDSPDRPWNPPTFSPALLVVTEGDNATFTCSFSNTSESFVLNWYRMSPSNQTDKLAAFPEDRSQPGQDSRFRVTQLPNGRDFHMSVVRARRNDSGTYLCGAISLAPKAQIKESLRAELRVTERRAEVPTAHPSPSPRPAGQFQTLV
experiment: SPR, mAb captured, 37C;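 further: Real-time Biacore biosensor, PD-1 dimer flowed over anti-PD-1 antibody surface, rate constants fitted to a 1:1 model, KD derived as kd/ka and t½ as ln2/(60·kd)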
endpointName: kon

Lookup result for H4H7795N2 (antibody, human IgG4 S228P, kappa, V domains shown) VH: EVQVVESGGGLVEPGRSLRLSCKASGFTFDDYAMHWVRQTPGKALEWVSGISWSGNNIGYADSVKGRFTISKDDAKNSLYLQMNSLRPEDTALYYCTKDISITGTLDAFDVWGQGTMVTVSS VL: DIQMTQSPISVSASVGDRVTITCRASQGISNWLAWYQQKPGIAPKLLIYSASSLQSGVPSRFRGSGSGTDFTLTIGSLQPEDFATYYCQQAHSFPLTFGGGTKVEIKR ; measured kon: 160000 M⁻¹ s⁻¹

Source: patent US20150203579A1
